molecular target: HCV RNA-dependent RNA polymerase (NS5B protein) (Hepatitis C virus genotype 1b, UniProt P26663); construct: The cDNA encoding the entire NS5B protein of HCV-Bk strain, genotype 1b; initiator Met (ATG added before the NS5B coding region) (N); made in house; host or cells: Sf9 insect cells, recombinant baculovirus (pBlueBacII, BacNS5B); assay: HCV RNA-dependent RNA polymerase assay (in vitro RdRp assay, heteropolymeric RNA template); assay type: biochemical, HCV-Bk strain; settings: purified recombinant NS5B 200 ng; competing NTP at twice Km, other NTPs 100 μM; 2 h at 22° C.; triphosphate form tested
Sequence (P26663 2420-3010): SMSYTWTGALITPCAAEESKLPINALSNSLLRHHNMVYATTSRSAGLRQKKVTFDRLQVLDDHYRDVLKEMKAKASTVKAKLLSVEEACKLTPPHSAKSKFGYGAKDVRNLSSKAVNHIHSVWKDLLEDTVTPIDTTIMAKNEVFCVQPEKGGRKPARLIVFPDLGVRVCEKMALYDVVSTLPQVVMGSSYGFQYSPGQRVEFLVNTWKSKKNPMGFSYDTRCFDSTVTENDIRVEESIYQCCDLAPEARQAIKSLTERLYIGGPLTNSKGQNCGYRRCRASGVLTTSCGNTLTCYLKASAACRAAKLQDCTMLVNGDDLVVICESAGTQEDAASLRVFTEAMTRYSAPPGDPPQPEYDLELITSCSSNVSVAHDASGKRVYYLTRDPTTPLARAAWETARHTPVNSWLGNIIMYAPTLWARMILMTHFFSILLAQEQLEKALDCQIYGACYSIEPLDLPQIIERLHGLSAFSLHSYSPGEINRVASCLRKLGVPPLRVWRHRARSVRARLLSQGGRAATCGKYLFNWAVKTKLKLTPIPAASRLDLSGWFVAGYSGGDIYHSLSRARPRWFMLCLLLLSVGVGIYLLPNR
RECORDED METRIC: IC50

Asked: Fill in the blank: the reported IC50 of 6-Chloro- 3′-deoxyguanosine- 5′triphosphate [COMPOUND#32] is ____.
Given back: 6.8 µM
